Measured values drawn from PubChem BioAssay (NCI) for this set.

test: NCI Yeast Anticancer Drug Screen. Data for the mlh1 rad18 strain (AID 175); settings: S. cerevisiae mlh1 rad18 strain growth inhibition; at 50.0 µM (retest, dose inferred, filed as 5.0)
The panel holds about 79,000 compounds, 15% with a hit somewhere; the sample as a whole holds those more often. The source made the active and inactive calls. Cut-off read from the data, not from the text of the source: active = growth inhibition above about 70%; inactive = the rest.
Choose the fitting class; nothing outside yes (active), no (inactive) is accepted.

# count of solved cases: 10
CC(C)(C)OC(=O)N(CCCCNC(=O)OCc1ccccc1)CCCNC(=O)OCc1ccccc1 = no
O=C(CCBr)NC(=O)Oc1cccc2ccccc12 = no
COP(=O)(OC)/C(=C/c1cn(C(c2ccccc2)(c2ccccc2)c2ccccc2)cn1)NC=O = no
Oc1c(Br)cc(Cl)cc1Br = yes
O=C(CSc1nnc(-c2ccc(N=Cc3ccc(Cl)cc3)cc2)o1)Nc1ccccc1Cl = no
Oc1ccc2ccccc2c1/C=N\Sc1ccccc1 = yes
CN(Cc1cc(Br)cc(Br)c1O)Cc1c[nH]c2ccccc12 = no
Cc1ccc(NC(=S)N(CCC#N)C2CCCCC2)cc1C = no
CC(=O)Oc1c2c(c(OC(C)=O)c3c1n(C(C)=O)c1ccccc1n3C(C)=O)n(C(C)=O)c1ccccc1n2C(C)=O = no
O=c1c(O)c(-c2ccc(Cl)cc2)oc2cc(O)ccc12 = no

# evaluate next
Assay outcome for `O=[N+]([O-])/C=C\c1csc2ccccc12` : what was it?
yes

###

assay: NCI Yeast Anticancer Drug Screen. Data for the cln2 rad14 strain (AID 165);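 note: 0% = growth equal to vehicle treated cultures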; conditions: S. cerevisiae cln2 rad14 strain, at 50.0 µM (retest, dose inferred, filed as 5.0), hits give high values
Compounds without any hit were thinned out: in the full panel of roughly 79,000, 15% have a hit. Activity calls are given as the source filed them. Rule as the data show it: active = growth inhibition above about 70%; inactive = the rest.
QUANTITY_NAME: growth inhibition

CCCCCCCCCCCCCCC(O)C(=O)O (stereo not given) = -42% (inactive)
CSC(=S)N/N=C\C(O)C(O)C(O)C(O)CO (stereo not given) = 0% (inactive)
CCC(C)SC1SCC2C(=O)N(C)C3(CC3C)C(=O)OCC(NC(=O)c3nc4ccccc4cc3O)C(=O)NC(C)C(=O)N(C)C1C(=O)N(C)C1(CC1C)C(=O)OCC(NC(=O)c1nc3ccccc3cc1O)C(=O)NC(C)C(=O)N2C (stereo not given) = 94% (active)

Please fill in: growth inhibition reported for CCCCCCCCCCCCCC(N)c1ccc(C)cc1 (stereo not given) = 97% (active)

Please fill in: growth inhibition reported for `Cc1cc(Cl)n2c(nc3ccccc32)c1C#N` = 89% (active)

Please fill in: growth inhibition reported for O=C1C=CC(=O)C2C3C=CC(CC3)C12 (stereo not given) = 43% (inactive)

Please fill in: growth inhibition reported for `COc1ccccc1NC(=O)/C(=C\N1C(=O)/C(=C/c2cc(OC)c(OC)c(OC)c2)SC1=S)C(C)=O` = 7% (inactive)

Please fill in: growth inhibition reported for `Cc1cc(C(=O)c2ccccc2)ccc1O` = -16% (inactive)

Please fill in: growth inhibition reported for `c1ccc(-c2ccc(-c3ccc(C4=NCCN4)cc3)o2)cc1` = 70% (active)

Please fill in: growth inhibition reported for `O=[N+]([O-])c1cc(CNCCO)c(O)c2ncccc12` = 98% (active)

###

assay: NCI Yeast Anticancer Drug Screen. Data for the bub3 strain (AID 167); details: S. cerevisiae bub3 mutant strain, at 50.0 µM, hits give high values
About 79,000 compounds went through this panel and 15% of them were active in at least one assay; those are over-represented in the sample as a whole.
QUANTITY_NAME: growth inhibition (%)
The reply should contain only the number, in %.

Worked examples follow.
CN(C)CCNc1ccc([N+](=O)[O-])c2nc3ccccc3c(N)c12 = -7.15
CC(=O)OC1=Cc2ccccc2C(c2ccccc2)c2ccccc21 (centres undefined) = 14.3
O=c1c2ccccc2[nH]c2c1[nH]c1ccccc12 = -20.6
COc1ccccc1C1c2cc3c(cc2OC2(OC)COC(=O)C12)OCO3 (centres undefined) = 17.2
O=c1oc(-c2ccccc2Br)ns1 = 97.5

Please fill in: growth inhibition reported for `CC(/C=C/c1ccc(Cl)c(Cl)c1)=N\NC(N)=S` = 64.4

Please fill in: growth inhibition reported for `Clc1ccc(SSN2CCCCC2)cc1` = 77.7

Please fill in: growth inhibition reported for `N#CCc1ccc2c(c1)Sc1ccccc1O2` = 50.2

Please fill in: growth inhibition reported for CC(O[Si](c1ccccc1)(c1ccccc1)C(C)(C)C)[C@H](NC(=O)OC(C)(C)C)C(=O)O[Si](c1ccccc1)(c1ccccc1)C(C)(C)C (some centres undefined) = 91.3

Please fill in: growth inhibition reported for `COC(=O)CSc1n[nH]c(-c2ccc(O)c([N+](=O)[O-])c2)n1` = 53

Please fill in: growth inhibition reported for COC1C(N)C(OC2C(Oc3cccc4c(O)c5c(=O)oc6ccc(C)c7c(=O)oc(c34)c5c67)OC(C)C(O)C2(C)O)OC(C)C1O (centres undefined) = 19.4

Please fill in: growth inhibition reported for COc1cc2c(cc1O)C1C(O)C(O)C=C3CCN(C2)C31 (centres undefined) = 85.5

Please fill in: growth inhibition reported for `CN(C)CCC(=O)[C@@]1(O)CC[C@H]2[C@@H]3CC=C4C[C@@H](O)CC[C@]4(C)[C@H]3CC[C@@]21C` = 49.1

Please fill in: growth inhibition reported for `O=S(=O)(NC(=S)Nc1ccccc1)c1ccc(Br)cc1` = 67.8

Please fill in: growth inhibition reported for CCC12C=CCN3CC[C@@]4(c5cc([C@@]6(C(=O)OC)C[C@@H]7CN(CCc8c6[nH]c6ccccc86)C[C@](O)(CC)C7)c(OC)cc5N(C)[C@H]4[C@@](O)(C(=O)OC)[C@@H]1OC(=O)CCCCCCCCCCCN1C(=O)C=CC1=O)[C@H]32 (some centres undefined) = 91

Please fill in: growth inhibition reported for `CS(=O)(=O)OCCN(CCOS(C)(=O)=O)c1ccc(N=Nc2ccccc2)cc1` = 39.5

Please fill in: growth inhibition reported for OCC1OC(NC(=S)NCSCCC(F)(F)C(F)(F)C(F)(F)C(F)(F)C(F)(F)C(F)(F)F)C(O)C(O)C1O (centres undefined) = 95.1

Please fill in: growth inhibition reported for `O=C/C=C/c1cc([N+](=O)[O-])ccc1Cl` = 79.2

Please fill in: growth inhibition reported for `O=[N+]([O-])c1cc(F)c(Sc2cc(Br)c([N+](=O)[O-])cc2F)cc1Br` = 28.9

###

experiment: NCI Yeast Anticancer Drug Screen. Data for the sgs1 mgt1 strain (AID 161);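 note: 0% = growth of cultures given vehicle only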; details: S. cerevisiae sgs1 mgt1 strain, at 50.0 µM (retest, dose inferred, filed as 5.0)
This is part of a sample that, as a whole, favours compounds with a hit. Of some 79,000 tested, about 15% had one in any assay. The source made the active and inactive calls. No stated cut-off is given here; in the data, active means growth inhibition above about 70%; inactive means the rest.
Choose the fitting class; nothing outside True = active, False = inactive is accepted.

Oc1ccc2c(ccc3ccccc32)c1 = True
COc1ccc2nc3cc(Cl)ccc3c(Nc3nccs3)c2c1 = True
Cn1c(=S)c2[nH]c(SCCN3CCCC3)nc2n(C)c1=O = True
Nc1ccc(Cl)c2ccccc12 = False

Assay outcome for `CCCCCCCC/C=C\CCCCCCCC(=O)OCCCCC` : what was it?
False

###

assay: NCI Yeast Anticancer Drug Screen. Data for the sgs1 mgt1 strain (AID 161);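 note: 0% = growth of cultures given vehicle only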; settings: S. cerevisiae sgs1 mgt1 strain, at 50.0 µM
Compounds without any hit were thinned out: in the full panel of roughly 79,000, 15% have a hit. Activity calls are given as the source filed them. Cut-off read from the data, not from the text of the source: active = growth inhibition above about 70%; inactive = the rest.
Choose the fitting class; nothing outside active, inactive is accepted.

O=C(c1ccc(Cl)cc1)c1ccc([N+](=O)[O-])cc1 = inactive
Cc1nc(-c2cccc(Cl)c2)oc1-c1ccccc1 = inactive

Assay outcome for `Cc1cc(NCCCN(C)C)c2cc3ccc4cccc5ccc(c2n1)c3c45` : what was it?
active

Assay outcome for `CN(Nc1ccc(Cl)cc1)c1ccc(Cl)cc1` : what was it?
active

Assay outcome for `C[n+]1c(/C=C/c2ccc(Cl)cc2)sc2ccccc21` : what was it?
active

Assay outcome for `CSc1nc(COC(=O)NC(C)C)c(COC(=O)NC(C)C)n1-c1ccccc1` : what was it?
inactive

###

experiment: NCI Yeast Anticancer Drug Screen. Data for the cln2 rad14 strain (AID 165);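 note: 0% = growth equal to vehicle treated cultures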; details: S. cerevisiae cln2 rad14 strain, at 50.0 µM, hits give high values
Compounds without any hit were thinned out: in the full panel of roughly 79,000, 15% have a hit.
// thresholds for growth inhibition classes: low class: < 10%; middle class: ≥ 10% and < 60%; high class: ≥ 60%

# count of solved cases: 8
CC(=O)N1C(C(=O)NNc2ccccc2)CSC1c1ccccc1 (configuration not stated) = high class
CCCCCCCCCCCC(=O)N(CCCCCCCCC)CC(O)C(O)C(OC1OC(CO)C(O)C(O)C1O)C(O)CO (configuration not stated) = high class
CCOC(=O)CN1CCCC(C(=O)CC2(O)C3(Cl)C4(Cl)C5(Cl)C(Cl)(Cl)C6(Cl)C4(Cl)C2(Cl)C6(Cl)C53Cl)C1 (configuration not stated) = high class
C(=C/c1ccccc1)/C=N/Nc1ccccc1 = low class
OCCOc1ccc2ccccc2c1-c1c(OCCOc2ccc3ccccc3c2-c2c(OCCO)ccc3ccccc23)ccc2ccccc12 = middle class
CCOC(=O)Nc1cc2c(cc1Br)-c1ccccc1C2O (configuration not stated) = low class
C(/C=C/CC=Nc1ccccc1)=Nc1ccccc1 = middle class
Nc1ccc(Oc2ccc(-c3ccccc3)cc2)c(Cl)c1 = high class

Band of `c1cnc2c(Oc3nc(Oc4cccc5cccnc45)nc(Oc4cccc5cccnc45)n3)cccc2c1` ?
high class

Band of CCCCCC1OC1CC1OC1CCCCCCCC(=O)OC (configuration not stated) ?
low class

Band of `COc1cc(CCN=Cc2cc(Cl)cc(Cl)c2O)c([N+](=O)[O-])cc1OC` ?
middle class

Band of `C[C@]12CC[C@H](O)C[C@@H]1CC[C@@H]1[C@@H]2CC[C@]2(C)C=CC[C@@H]12` ?
high class

Band of `Nc1ccc2c(c1)[nH]c(=O)c1cc(Cl)c(Cl)cc12` ?
middle class

Band of CN(C)CCCC1(c2ccccc2)SC(C)(C)c2ccc(Cl)cc21 (configuration not stated) ?
low class

Band of `CCOC(=O)c1c(SCC#N)n(-c2ccccc2)c(=S)n(-c2ccccc2)c1=O` ?
high class

Band of `O=Cc1cc(-c2ccccc2)n(-c2ccccc2)c1-c1ccccc1` ?
low class

Band of `CCCC(=O)OCc1cc(=O)n(C)c2c3c4c(cc12)c(C)cc(=O)n4CO3` ?
middle class

Band of `Oc1ccc2ccccc2c1CNc1ccc2ccccc2c1` ?
high class

Band of `Oc1ccccc1C1CCCCC1` ?
middle class

Band of `O=C(c1ccccc1)c1ccc(O)cc1O` ?
middle class
